Just for reference, patent US20250313625A1 is where these values come from.

testSystem: T1, hFc tagged human LAG3 ECD recombinant protein (human, UniProt P18627 23-450)
T1 construct: range 23-450; also called biotin labelled hFc tagged human LAG3 ECD; not shown: human IgG Fc tag
T1 sequence (looked up): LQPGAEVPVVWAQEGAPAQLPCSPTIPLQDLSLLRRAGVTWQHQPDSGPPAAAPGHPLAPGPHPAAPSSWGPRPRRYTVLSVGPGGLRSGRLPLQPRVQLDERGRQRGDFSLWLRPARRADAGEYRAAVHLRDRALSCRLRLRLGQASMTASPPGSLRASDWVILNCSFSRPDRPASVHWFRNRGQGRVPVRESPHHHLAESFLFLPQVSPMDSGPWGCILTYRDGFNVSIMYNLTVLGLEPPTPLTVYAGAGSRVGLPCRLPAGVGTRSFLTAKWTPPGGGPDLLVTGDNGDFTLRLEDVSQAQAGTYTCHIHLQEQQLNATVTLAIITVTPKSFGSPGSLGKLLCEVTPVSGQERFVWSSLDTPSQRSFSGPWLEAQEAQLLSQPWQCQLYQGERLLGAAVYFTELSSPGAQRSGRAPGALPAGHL
methodDescription: competitive ELISA: excess competitor, biotin hFc-LAG3 ECD, coated BMS-986016
List of % competition values.

binder	% competition
Antibody 027 (antibody, V domains shown, mouse hybridoma antibody) VH: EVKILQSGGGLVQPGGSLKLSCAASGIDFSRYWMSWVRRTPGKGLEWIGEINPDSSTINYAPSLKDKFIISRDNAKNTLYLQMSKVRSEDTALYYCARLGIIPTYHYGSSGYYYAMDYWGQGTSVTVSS VL: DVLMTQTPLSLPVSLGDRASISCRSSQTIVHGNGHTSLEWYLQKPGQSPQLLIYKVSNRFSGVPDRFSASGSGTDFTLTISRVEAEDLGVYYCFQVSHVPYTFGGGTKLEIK	7.2%
Antibody 038 (antibody, V domains shown, mouse hybridoma antibody) VH: DVQVQESGPGLVKPSQSLSLTCSVTGYSITSGYYWNWIRQFPGNKLEWMGYISYDGSNEYNLSLKNRLSITRDTSKNQFFLKLNSVTTEDTATYYCAREEDGYYGGMDYWGQGTSVTVSS VL: DIVMTQSHKFMSASVGVRVSITCRASQDVDTAVAWYQQKPGQSPKLLIYWASTRHTGVPDRFTGSGSGTDFTLTISNVQSEDLADYFCQQYSSYPYTFGGGTKLEIK	33.5%
Antibody 035 (antibody, V domains shown, mouse hybridoma antibody) VH: QVQLQQSGAELARPGASVKLSCKASGYSFTSYGINWVKQRTGQGLEWIGEIYPRSGNTYYNEKFKDKATLTADKSSSTAYMELRSLTSEDSAVYFCARGGTYDGYYYAMDFWGQGTSVTVSS VL: DIVLTQSPASLAVSLGQRATISCRASESVDNFGSSFLHWYQQKPGQAPKLLIYRASNLESGIPARFSGSGSRTDFTLTINPVETDDVATYYCQQVNKDPRTFGGGTKLEIK	21.7%
